- assayed.target: MLK1 (Homo sapiens, UniProt P80192)
- Sequence (P80192 whole entry, species assumed): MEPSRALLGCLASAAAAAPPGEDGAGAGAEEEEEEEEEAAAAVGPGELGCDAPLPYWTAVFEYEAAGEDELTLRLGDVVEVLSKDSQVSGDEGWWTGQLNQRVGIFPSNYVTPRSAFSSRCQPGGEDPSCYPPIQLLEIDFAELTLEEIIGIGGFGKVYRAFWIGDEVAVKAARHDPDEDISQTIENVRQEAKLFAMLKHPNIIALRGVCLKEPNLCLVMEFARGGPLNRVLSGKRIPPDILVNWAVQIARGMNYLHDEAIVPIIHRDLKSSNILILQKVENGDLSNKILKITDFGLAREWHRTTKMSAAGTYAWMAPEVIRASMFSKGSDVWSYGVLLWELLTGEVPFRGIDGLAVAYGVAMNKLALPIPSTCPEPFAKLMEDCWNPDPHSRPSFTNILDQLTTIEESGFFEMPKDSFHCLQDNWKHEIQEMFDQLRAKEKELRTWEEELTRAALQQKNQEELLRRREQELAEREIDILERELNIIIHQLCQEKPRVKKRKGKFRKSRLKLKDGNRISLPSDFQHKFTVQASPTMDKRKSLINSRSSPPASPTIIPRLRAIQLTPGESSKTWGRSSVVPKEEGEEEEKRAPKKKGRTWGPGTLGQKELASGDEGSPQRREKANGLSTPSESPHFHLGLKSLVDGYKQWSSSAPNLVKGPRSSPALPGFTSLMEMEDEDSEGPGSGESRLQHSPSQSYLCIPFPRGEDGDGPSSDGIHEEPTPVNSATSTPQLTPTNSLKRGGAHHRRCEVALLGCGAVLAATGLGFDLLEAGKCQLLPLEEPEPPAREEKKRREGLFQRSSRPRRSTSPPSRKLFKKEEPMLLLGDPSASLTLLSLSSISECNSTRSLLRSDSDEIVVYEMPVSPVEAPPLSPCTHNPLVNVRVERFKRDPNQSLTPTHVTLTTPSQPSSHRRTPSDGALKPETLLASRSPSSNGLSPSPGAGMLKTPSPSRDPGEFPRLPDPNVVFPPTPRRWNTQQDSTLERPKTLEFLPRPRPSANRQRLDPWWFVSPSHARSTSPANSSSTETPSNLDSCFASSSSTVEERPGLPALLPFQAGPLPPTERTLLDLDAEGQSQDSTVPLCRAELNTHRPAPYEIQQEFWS
- test.method.notes: Kinase profiling MLK1
- Type: biochemical
- reported.conditions: 100 micromolar inhibitor concentration; 100 is no change
Threshold rule: residual kinase activity, MLK1 greater than or equal to 60 is rule met; below that, rule not met.

Test whether the molecule "O=C(Nc1nc2cc(O)ccc2s1)c1ccccn1" records residual kinase activity, MLK1 of 60 or higher.
rule met

Dear colleague, could you confirm whether "O=C(Nc1nc2ccc(O)cc2s1)c1ccccn1" has residual kinase activity, MLK1 at or above 60?
rule not met

Tell me whether residual kinase activity, MLK1 is at least 60 here: "CC(=O)Nc1nc2cc(C)ccc2s1"
rule not met

Decide: residual kinase activity, MLK1 of "O=C(Nc1nc2cc(O)ccc2s1)c1ccncc1" >= 60?
rule met

hey, is residual kinase activity, MLK1 for this one >= 60? "CC(=O)Nc1nc2ccccc2s1"
rule met

----------
- assayed.target: PAK6 (Homo sapiens, UniProt Q9NQU5)
- Sequence (Q9NQU5 whole entry, species assumed): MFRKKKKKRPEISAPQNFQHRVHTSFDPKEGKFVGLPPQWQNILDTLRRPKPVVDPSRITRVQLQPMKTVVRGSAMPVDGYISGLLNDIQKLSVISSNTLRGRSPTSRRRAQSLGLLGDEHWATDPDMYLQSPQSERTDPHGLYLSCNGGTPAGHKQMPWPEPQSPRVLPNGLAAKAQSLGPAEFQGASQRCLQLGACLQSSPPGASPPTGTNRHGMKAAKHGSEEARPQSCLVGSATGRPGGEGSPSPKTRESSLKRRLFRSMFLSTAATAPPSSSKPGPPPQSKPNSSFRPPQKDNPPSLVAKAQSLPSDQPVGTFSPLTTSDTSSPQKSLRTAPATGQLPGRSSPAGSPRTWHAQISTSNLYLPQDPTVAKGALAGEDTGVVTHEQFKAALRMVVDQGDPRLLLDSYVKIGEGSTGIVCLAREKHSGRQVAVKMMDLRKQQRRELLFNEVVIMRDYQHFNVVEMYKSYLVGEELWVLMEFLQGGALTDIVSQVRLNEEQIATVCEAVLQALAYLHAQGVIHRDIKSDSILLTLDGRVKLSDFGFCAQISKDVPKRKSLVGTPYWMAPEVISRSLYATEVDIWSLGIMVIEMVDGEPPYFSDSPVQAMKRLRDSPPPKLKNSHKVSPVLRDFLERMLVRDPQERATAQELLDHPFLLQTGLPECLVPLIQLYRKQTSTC
- test.method.notes: Kinase profiling PAK6
- Type: biochemical
- reported.conditions: 100 micromolar inhibitor concentration; 100 is no change
Classify as follows. Reported residual kinase activity, PAK6 greater than or equal to 100: yes. Reported residual kinase activity, PAK6 below: no.

A selection of reference data follows.
O=C(Nc1nc2cc(O)ccc2s1)c1cccnc1
yes
CC(=O)Nc1nc2cc(C)ccc2s1
yes
O=C(Nc1nc2ccc(O)cc2s1)c1ccncc1
no

hey, is residual kinase activity, PAK6 for this one >= 100? "CC(=O)Nc1nc2ccccc2s1"
no

State whether the measured residual kinase activity, PAK6 reaches 100, counting equality as reaching it, for "O=C(Nc1nc2cc(O)ccc2s1)c1ccncc1"
no

Evaluate "O=C(Nc1nc2ccc(O)cc2s1)c1ccccc1" : residual kinase activity, PAK6 at minimum 100?
yes

residual kinase activity, PAK6 >= 100 for "O=C(Nc1nc2ccc(O)cc2s1)c1cccnc1" ?
no

----------
Each entry below lists one item and its recorded remaining activity at 100 µM value.
- assayed.target: MARK2 (Homo sapiens)
- Sequence (Q7KZI7 whole entry, species assumed): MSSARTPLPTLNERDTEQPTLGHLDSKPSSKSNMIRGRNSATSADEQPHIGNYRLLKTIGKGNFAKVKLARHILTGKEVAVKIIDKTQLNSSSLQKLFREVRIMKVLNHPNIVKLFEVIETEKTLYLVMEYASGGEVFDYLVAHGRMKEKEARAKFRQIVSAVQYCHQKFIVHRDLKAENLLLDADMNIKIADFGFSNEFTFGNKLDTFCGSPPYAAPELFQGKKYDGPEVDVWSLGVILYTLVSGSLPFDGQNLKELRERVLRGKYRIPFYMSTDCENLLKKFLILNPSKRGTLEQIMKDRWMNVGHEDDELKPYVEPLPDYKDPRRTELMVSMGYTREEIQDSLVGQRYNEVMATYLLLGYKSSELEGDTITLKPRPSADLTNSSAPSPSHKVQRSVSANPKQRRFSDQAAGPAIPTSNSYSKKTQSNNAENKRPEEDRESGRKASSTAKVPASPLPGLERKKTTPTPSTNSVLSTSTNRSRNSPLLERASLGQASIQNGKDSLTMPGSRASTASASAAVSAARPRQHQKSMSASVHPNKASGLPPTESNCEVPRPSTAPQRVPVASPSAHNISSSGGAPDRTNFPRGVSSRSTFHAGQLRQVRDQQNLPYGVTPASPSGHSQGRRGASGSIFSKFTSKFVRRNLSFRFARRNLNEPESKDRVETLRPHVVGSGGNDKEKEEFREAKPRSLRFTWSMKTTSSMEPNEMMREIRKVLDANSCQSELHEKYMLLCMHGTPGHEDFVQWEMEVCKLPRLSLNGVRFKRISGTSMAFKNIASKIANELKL
- test.method.notes: Kinase profiling MARK2
- Assay type: biochemical
- reported.conditions: 100 micromolar inhibitor concentration; 100 is no change; read-out: residual kinase activity, MARK2
Answer shape: numeric part, then the unit.

Guide cases for remaining activity at 100 µM, answers given:
CC(=O)Nc1nc2cc(F)ccc2s1
79%
CC(=O)Nc1nc2ccc(C#N)cc2s1
53%
CC(=O)Nc1nc2cc(C(F)(F)F)ccc2s1
99%

Form: compound = "CC(=O)Nc1nc2ccc(C(F)(F)F)cc2s1" ; remaining activity at 100 µM = 74%

"CC(=O)Nc1nc2ccc(O)cc2s1" yielded remaining activity at 100 µM of 54%

Briefly, remaining activity at 100 µM measured for "COc1ccc2sc(NC(C)=O)nc2c1" : 103%

----------
Catalogue of residual kinase activity, PKD1 values
- assayed.target: UniProt Q15139
- Sequence (Q15139 whole entry): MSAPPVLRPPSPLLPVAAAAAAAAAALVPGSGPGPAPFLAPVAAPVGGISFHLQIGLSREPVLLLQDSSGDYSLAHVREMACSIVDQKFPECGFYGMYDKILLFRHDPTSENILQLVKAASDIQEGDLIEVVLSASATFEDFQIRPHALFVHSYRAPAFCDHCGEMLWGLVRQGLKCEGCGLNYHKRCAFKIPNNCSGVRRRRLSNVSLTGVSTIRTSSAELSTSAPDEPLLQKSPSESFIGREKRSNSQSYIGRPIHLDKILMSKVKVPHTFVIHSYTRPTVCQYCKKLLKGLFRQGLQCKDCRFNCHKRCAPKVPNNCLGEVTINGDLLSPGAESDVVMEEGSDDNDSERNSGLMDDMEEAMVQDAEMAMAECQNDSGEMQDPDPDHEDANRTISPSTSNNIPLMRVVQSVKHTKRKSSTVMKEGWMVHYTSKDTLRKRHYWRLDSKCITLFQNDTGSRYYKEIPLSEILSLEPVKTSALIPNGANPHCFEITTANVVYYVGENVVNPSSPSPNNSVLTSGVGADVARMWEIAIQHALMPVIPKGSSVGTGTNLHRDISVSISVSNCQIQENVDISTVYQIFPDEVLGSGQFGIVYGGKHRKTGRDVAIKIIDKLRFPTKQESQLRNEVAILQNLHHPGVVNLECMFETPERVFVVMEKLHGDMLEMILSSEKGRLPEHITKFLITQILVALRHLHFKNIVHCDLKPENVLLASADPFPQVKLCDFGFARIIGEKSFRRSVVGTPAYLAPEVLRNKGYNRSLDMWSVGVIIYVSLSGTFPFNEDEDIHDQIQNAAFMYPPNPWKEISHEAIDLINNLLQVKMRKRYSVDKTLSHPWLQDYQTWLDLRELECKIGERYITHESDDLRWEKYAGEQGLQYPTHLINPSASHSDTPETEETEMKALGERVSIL
- test.method.notes: Kinase profiling PKD1
- Assay type: biochemical
- reported.conditions: 100 micromolar inhibitor concentration; 100 is no change
Answer with a bare number; do not write a unit.

COc1ccc2sc(NC(=O)c3ccccc3)nc2c1
92
CC(=O)Nc1ccc(C(=O)Nc2nc3ccc(O)cc3s2)cc1
53
COc1ccc2sc(NC(=O)c3ccc(NC(C)=O)cc3)nc2c1
114
O=C(Nc1nc2ccc(O)cc2s1)c1ccccn1
70
CC(=O)Nc1nc2ccc(F)cc2s1
105
COc1ccc2sc(NC(=O)c3cccc(NC(C)=O)c3)nc2c1
49
COC(=O)c1cccc(C(=O)Nc2nc3ccc(F)cc3s2)c1
88
CC(=O)Nc1nc2ccccc2s1
105
COC(=O)c1cccc(C(=O)Nc2nc3cc(OC)ccc3s2)c1
102
O=C(Nc1nc2cc(O)ccc2s1)c1ccccn1
76

Entry under test: "N#Cc1ccc2nc(NC(=O)c3ccccc3)sc2c1" . Its residual kinase activity, PKD1 was 86

The reported value for "CC(=O)Nc1cccc(C(=O)Nc2nc3ccc(O)cc3s2)c1" in terms of residual kinase activity, PKD1 is 54
